Where do these numbers come from? They come from patent US20100099561A1.

- Tested on: velvetleaf (Abutilon theophrasti)
- protocol-summary: Test A preemergence, velvetleaf
- Assay type: in vivo
- condition-parameters: 500 g ai/ha, 0 to 100 scale (0 no effect, 100 complete control)
For each entry below, report its Plant response rating, Velvetleaf value.
In your answer, state the number alone without any accompanying words.

## Input Returns the measured Plant response rating, Velvetleaf for the input compound. Input: CC1(C)CC([S+]([O-])Cc2c(C(F)(F)F)nc3n(c2=O)CCCO3)=NO1 (centres unmarked)
## Output 0

## Input For CC1(C)CC([S+]([O-])Cc2c(C(F)(F)C(F)(F)F)nc3n(c2=O)CCCS3)=NO1 (centres unmarked) then?
## Output 0

## Input Query `CC1(C)CC(S(=O)(=O)Cc2c(C(F)(F)F)nc3n(c2=O)CCCCC3)=NO1` next
## Output 60

## Input Check Cc1cc2nc(C(F)(F)F)c(C[S+]([O-])C3=NOC(C)(C)C3)c(=O)n2o1 (centres unmarked) too.
## Output 0

## Input What do you have for `CC1(C)CC(S(=O)(=O)Cc2c(C(F)(F)F)nc3cnccn3c2=O)=NO1` ?
## Output 0

## Input Continue with `CC1(C)CC(S(=O)(=O)Cc2c(C(F)(F)C(F)(F)F)nc3n(c2=O)CCC3)=NO1`
## Output 90

## Input What do you get for CC1(C)CC([S+]([O-])Cc2c(C(F)(F)Cl)nc3n(c2=O)CCC3)=NO1 (centres unmarked) ?
## Output 0

## Input Query CC1(C)CC([S+]([O-])Cc2c(C(F)(F)F)nc3ccon3c2=O)=NO1 (centres unmarked) next
## Output 0

----------
Assignment: determine reported Plant response rating, Corn for the given compounds.
- System: corn (Zea mays)
- protocol-summary: Test A postemergence, corn
- Type: in vivo
- condition-parameters: 500 g ai/ha, 0 to 100 scale (0 no effect, 100 complete control)
Could you keep your reply to the number by itself?

## Input Form field - read-out: Plant response rating, Corn; system: corn (Zea mays); submitted item: CC1(C)CC([S+]([O-])Cc2c(C(F)(F)Cl)nc3n(c2=O)CCCS3)=NO1 (centres unmarked)
## Output 0

## Input What do you have for `CC1(C)CC(S(=O)(=O)Cc2c(C(F)(F)F)nc3ccccn3c2=O)=NO1` ?
## Output 0

## Input Proceed to `CC1(C)CC(S(=O)(=O)Cc2c(C(F)(F)F)nc3ccon3c2=O)=NO1`
## Output 0

## Input Repeat for the following compound: CC1(C)CC([S+]([O-])Cc2c(C(F)(F)F)nc3n(c2=O)CCCO3)=NO1 (centres unmarked)
## Output 0

## Input Try `CC1(C)CC(S(=O)(=O)Cc2c(C(F)(F)F)nc3ccsn3c2=O)=NO1` next.
## Output 0

## Input // repeat for Cn1c(=O)c(C[S+]([O-])C2=NOC(C)(C)C2)nc2ccccc21 (centres unmarked) and report
## Output 0

## Input Now the compound Cc1cc2nc(C(F)(F)F)c(C[S+]([O-])C3=NOC(C)(C)C3)c(=O)n2o1 (centres unmarked)
## Output 30

## Input One more compound: CC1(C)CC([S+]([O-])Cc2c(C(F)(F)F)nc3cccnn3c2=O)=NO1 (centres unmarked)
## Output 0

## Input Next record, please: `CCn1c(=O)c(CS(=O)(=O)C2=NOC(C)(C)C2)nc2ccccc21`
## Output 0

## Input Try the compound CC1(C)CC([S+]([O-])Cc2c(C(F)(F)F)nc3n(c2=O)CCS3)=NO1 (centres unmarked)
## Output 30

## Input Also, CC1(C)CC([S+]([O-])Cc2c(C(F)(F)C(F)(F)F)nc3n(c2=O)CCC3)=NO1 (centres unmarked) please.
## Output 0

## Input Lookup `Cn1c(=O)c(CS(=O)(=O)C2=NOC(C)(C)C2)nc2ccccc21`
## Output 0

## Input Again, but for `CC1(C)CC(S(=O)(=O)Cc2c(C(F)(F)C(F)(F)F)nc3n(c2=O)CCC3)=NO1`
## Output 0

## Input What do you get for `Cc1con2c(=O)c(CS(=O)(=O)C3=NOC(C)(C)C3)c(C(F)(F)F)nc12` ?
## Output 0

## Input Queued: CC1(C)CC([S+]([O-])Cc2c(C(F)(F)F)nc3n(c2=O)CCC3)=NO1 (centres unmarked)
## Output 20

## Input Same question for Cc1con2c(=O)c(C[S+]([O-])C3=NOC(C)(C)C3)c(C(F)(F)F)nc12 (centres unmarked) please.
## Output 20

## Input Repeat with `CC1(C)CC(S(=O)(=O)Cc2c(C(F)(F)C(F)(F)F)nc3n(c2=O)CCCC3)=NO1`
## Output 0

----------
- Tested on: barnyardgrass (Echinochloa crus-galli)
- protocol-summary: Test A preemergence, barnyardgrass
- Assay type: in vivo
- condition-parameters: 125 g ai/ha, 0 to 100 scale (0 no effect, 100 complete control)
- From the text: Seeds of barnyardgrass (Echinochloa crus-galli), large crabgrass (Digitaria sanguinalis), giant foxtail (Setaria faberi), morningglory (Ipomoea spp.), pigweed (Amaranthus retroflexus), velvetleaf (Abutilon theophrasti), wheat (Triticum aestivum), and corn (Zea mays) were planted into a blend of loam soil and sand and treated preemergence with a directed soil spray using test chemicals formulated in a non-phytotoxic solvent mixture which included a surfactant. […]
readout-kind: Plant response rating, Barnyardgrass
Write the value as a bare number.

## Input Query Plant response rating, Barnyardgrass on barnyardgrass (Echinochloa crus-galli) for CC1(C)CC(S(=O)(=O)Cc2c(C(F)(F)F)nc3ccon3c2=O)=NO1 [Compound 42]
## Output 30

## Input Input CCn1c(=O)c(C[S+]([O-])C2=NOC(C)(C)C2)nc2ccccc21 (centres unmarked) [Compound 29]
## Output 0

## Input // same read-out, input: CC1(C)CC(S(=O)(=O)Cc2c(C(F)(F)Cl)nc3n(c2=O)CCCC3)=NO1 [Compound 30]
## Output 50

## Input Further, for CC1(C)CC([S+]([O-])Cc2c(C(F)(F)F)nc3n(c2=O)CCCO3)=NO1 (centres unmarked) [Compound 3] ?
## Output 30

## Input Cool, now Cc1cc2nc(C(F)(F)F)c(CS(=O)(=O)C3=NOC(C)(C)C3)c(=O)n2o1 [Compound 53]
## Output 30

## Input Please answer likewise for CC1(C)CC([S+]([O-])Cc2c(C(F)(F)Cl)nc3n(c2=O)CCC3)=NO1 (centres unmarked) [Compound 17]
## Output 20

## Input Would you mind doing CC1(C)CC(S(=O)(=O)Cc2c(C(F)(F)C(F)(F)F)nc3n(c2=O)CCC3)=NO1 [Compound 22] as well?
## Output 80

## Input Can you check CCn1c(=O)c(CS(=O)(=O)C2=NOC(C)(C)C2)nc2ccccc21 [Compound 28] next?
## Output 0

## Input Cool, now CC1(C)CC(S(=O)(=O)Cc2c(C(F)(F)F)nc3n(c2=O)CCCC3)=NO1 [Compound 8]
## Output 90

## Input Also check CC1(C)CC([S+]([O-])Cc2c(C(F)(F)F)nc3cccnn3c2=O)=NO1 (centres unmarked) [Compound 46]
## Output 0

## Input Try CC1(C)CC([S+]([O-])Cc2c(C(F)(F)C(F)(F)F)nc3n(c2=O)CCCC3)=NO1 (centres unmarked) [Compound 19] next.
## Output 0

## Input Now this one: CC1(C)CC([S+]([O-])Cc2c(C(F)(F)F)nc3n(c2=O)CCC3)=NO1 (centres unmarked) [Compound 10]
## Output 0

## Input Same thing, different molecule: CC1(C)CC(S(=O)(=O)Cc2c(C(F)(F)Cl)nc3n(c2=O)CCC3)=NO1 [Compound 18]
## Output 70

## Input Then CC1(C)CC(S(=O)(=O)Cc2c(C(F)(F)F)nc3cccnn3c2=O)=NO1 [Compound 45] ?
## Output 20

## Input Now give it for CC1(C)CC(S(=O)(=O)Cc2c(C(F)(F)F)nc3n(c2=O)CCO3)=NO1 [Compound 2] too.
## Output 80

## Input Now this one: CC1(C)CC(S(=O)(=O)Cc2c(C(F)(F)F)nc3cnccn3c2=O)=NO1 [Compound 52]
## Output 20

## Input Note, next up: CC1(C)CC([S+]([O-])Cc2c(C(F)(F)C(F)(F)F)nc3n(c2=O)CCS3)=NO1 (centres unmarked) [Compound 41]
## Output 0

----------
Record form. Attribute: Plant response rating, Morningglory. Fill in for each entry.
- Tested on: morningglory (Ipomoea spp.)
- protocol-summary: Test A postemergence, morningglory
- Format: in vivo
- condition-parameters: 500 g ai/ha, 0 to 100 scale (0 no effect, 100 complete control)
Would you mind answering with just the numeric figure?

## Input For the molecule `Cn1c(=O)c(CS(=O)(=O)C2=NOC(C)(C)C2)nc2ccccc21` , what Plant response rating, Morningglory is on record?
## Output 0

## Input Would you kindly repeat that for CC1(C)CC([S+]([O-])Cc2c(C(F)(F)Cl)nc3n(c2=O)CCC3)=NO1 (stereo not shown) ?
## Output 0

## Input // next record Cc1cc2nc(C(F)(F)F)c(C[S+]([O-])C3=NOC(C)(C)C3)c(=O)n2o1 (stereo not shown)
## Output 10

## Input Try CC1(C)CC([S+]([O-])Cc2c(C(F)(F)Cl)nc3n(c2=O)CCCC3)=NO1 (stereo not shown) next.
## Output 50

## Input Repeat with CCn1c(=O)c(C[S+]([O-])C2=NOC(C)(C)C2)nc2cccnc21 (stereo not shown)
## Output 10

## Input Please answer likewise for `CC1(C)CC(S(=O)(=O)Cc2c(C(F)(F)Cl)nc3n(c2=O)CCCC3)=NO1`
## Output 50

## Input Cool, now CC1(C)CC([S+]([O-])Cc2c(C(F)(F)C(F)(F)F)nc3n(c2=O)CCS3)=NO1 (stereo not shown)
## Output 10

## Input Further, for `Cc1con2c(=O)c(CS(=O)(=O)C3=NOC(C)(C)C3)c(C(F)(F)F)nc12` ?
## Output 30

## Input Same again, this time with CC1(C)CC([S+]([O-])Cc2c(C(F)(F)F)nc3cccnn3c2=O)=NO1 (stereo not shown)
## Output 0

## Input What do you get for `CC1(C)CC(S(=O)(=O)Cc2c(C(F)(F)F)nc3ccccn3c2=O)=NO1` ?
## Output 0

## Input Okay, and CC1(C)CC([S+]([O-])Cc2c(C(F)(F)Cl)nc3n(c2=O)CCCS3)=NO1 (stereo not shown) ?
## Output 30

## Input Note, next up: CC1(C)CC([S+]([O-])Cc2c(C(F)(F)C(F)(F)F)nc3n(c2=O)CCC3)=NO1 (stereo not shown)
## Output 40

## Input Also, CCn1c(=O)c(C[S+]([O-])C2=NOC(C)(C)C2)nc2ccccc21 (stereo not shown) please.
## Output 0

## Input How about this molecule: `CC1(C)CC(S(=O)(=O)Cc2c(C(F)(F)Cl)nc3n(c2=O)CCC3)=NO1`
## Output 60

## Input And the next one, CC1(C)CC([S+]([O-])Cc2c(C(F)(F)F)nc3n(c2=O)CCS3)=NO1 (stereo not shown) ?
## Output 0

## Input Same for `Cc1cc2nc(C(F)(F)F)c(CS(=O)(=O)C3=NOC(C)(C)C3)c(=O)n2o1`
## Output 10
